I'd be grateful if you could share measured inhibition at 10 µM for these entries.
Tested on: A549
Experiment: Anticancer activity against human A549 cells assessed as inhibition rate at 10 uM by SRB assay relative to control
Format: functional
Lab book: enter the figure in %, no units written.

Q: Return reported inhibition at 10 µM. Input compound: CCN(CC)c1ccc2cc(C(O)c3ccc(OCCN4CCN(C(=O)CN5CCN(C(=O)c6ccccc6C(F)(F)F)CC5)CC4)cc3)oc2c1 (configuration not stated)
A: 43.6

Q: Return reported inhibition at 10 µM. Input compound: CCN(CC)c1ccc2cc(C(O)c3ccc(OCCN4CCN(C(=O)CN5CCN(C(=O)c6ccc7ccccc7c6)CC5)CC4)cc3)oc2c1 (configuration not stated)
A: 77.9

Q: Return reported inhibition at 10 µM. Input compound: CCN(CC)c1ccc2cc(C(O)c3ccc(OCCN4CCN(C(=O)CN5CCN(C(=O)c6ccc(C(F)(F)F)cc6)CC5)CC4)cc3)oc2c1 (configuration not stated)
A: 92.5

Q: Return reported inhibition at 10 µM. Input compound: "CCN(CC)c1ccc2cc(C(=O)c3ccc(OCCN4CCN(C(=O)CN5CCN(C(=O)c6cc(F)c(F)c(F)c6F)CC5)CC4)cc3)oc2c1"
A: 20

Q: Return reported inhibition at 10 µM. Input compound: CCN(CC)c1ccc2cc(C(O)c3ccc(OCCN4CCN(C(=O)CN5CCN(C(=O)c6ccccc6F)CC5)CC4)cc3)oc2c1 (configuration not stated)
A: 55.3

Q: Return reported inhibition at 10 µM. Input compound: CCN(CC)c1ccc2cc(C(O)c3ccc(OCCN4CCN(C(=O)CN5CCN(C(=O)c6ccc(F)cc6)CC5)CC4)cc3)oc2c1 (configuration not stated)
A: 80.1

Q: Return reported inhibition at 10 µM. Input compound: CCN(CC)c1ccc2cc(C(O)c3ccc(OCCN4CCN(C(=O)CN5CCN(C(=O)c6ccc(Br)cc6C(F)(F)F)CC5)CC4)cc3)oc2c1 (configuration not stated)
A: 69.7

---

System: HeLa
Experiment: Anticancer activity against human Hela cells assessed as inhibition rate at 30 uM by SRB assay relative to control
Type: functional
Where inhibition at 30 µM equals or exceeds 40%, the correct label is Yes; where it does not, the label is No.

Q: Quick check, inhibition at 30 µM >= 40%? "CCN(CC)c1ccc2cc(C(=O)c3ccc(OCCN4CCN(C(=O)CN5CCN(C(=O)c6ccccc6F)CC5)CC4)cc3)oc2c1"
A: Yes

Q: Quick check, inhibition at 30 µM >= 40%? CCN(CC)c1ccc2cc(C(O)c3ccc(OCCN4CCN(C(=O)CN5CCN(C(=O)c6ccc([N+](=O)[O-])cc6)CC5)CC4)cc3)oc2c1 (stereo unspecified)
A: No

Q: Quick check, inhibition at 30 µM >= 40%? CCN(CC)c1ccc2cc(C(O)c3ccc(OCCN4CCN(C(=O)CN5CCN(C(=O)c6ccc(C)cc6)CC5)CC4)cc3)oc2c1 (stereo unspecified)
A: No

Q: Quick check, inhibition at 30 µM >= 40%? "CCN(CC)c1ccc2cc(C(=O)c3ccc(OCCN4CCN(C(=O)CN5CCN(C(=O)c6cc(Cl)cc(Cl)c6)CC5)CC4)cc3)oc2c1"
A: Yes

Q: Quick check, inhibition at 30 µM >= 40%? "C=CC(=O)N1CCN(CC(=O)N2CCN(CCOc3ccc(C(=O)c4cc5ccc(N(CC)CC)cc5o4)cc3)CC2)CC1"
A: No

Q: Quick check, inhibition at 30 µM >= 40%? CCN(CC)c1ccc2cc(C(O)c3ccc(OCCN4CCN(C(=O)CN5CCN(C(=O)c6ccc(Br)cc6C(F)(F)F)CC5)CC4)cc3)oc2c1 (stereo unspecified)
A: No

Q: Quick check, inhibition at 30 µM >= 40%? "CCN(CC)c1ccc2cc(C(=O)c3ccc(OCCN4CCN(C(=O)CN5CCN(C(=O)c6ccc(F)cc6)CC5)CC4)cc3)oc2c1"
A: Yes

Q: Quick check, inhibition at 30 µM >= 40%? "CCN(CC)c1ccc2cc(C(=O)c3ccc(OCCN4CCN(C(=O)CN5CCN(C(=O)c6cc(F)c(F)c(F)c6F)CC5)CC4)cc3)oc2c1"
A: Yes

Q: Quick check, inhibition at 30 µM >= 40%? "CCc1ccc(C(=O)N2CCN(CC(=O)N3CCN(CCOc4ccc(C(=O)c5cc6ccc(N(CC)CC)cc6o5)cc4)CC3)CC2)cc1"
A: Yes

Q: Quick check, inhibition at 30 µM >= 40%? CCc1ccc(C(=O)N2CCN(CC(=O)N3CCN(CCOc4ccc(C(O)c5cc6ccc(N(CC)CC)cc6o5)cc4)CC3)CC2)cc1 (stereo unspecified)
A: Yes
